# Test system: LOX IMVI
# ASSAY: NCI tumour cell line growth inhibition, 48 h
Activity calls are given as the source filed them. Rule as the data show it: active = GI50 up to about 1.1 µM and inactive = higher. Where a SMILES comes first, the peptide text is derived from it. Bridges are numbered along the chain shown (N, C = ends). [ ]: non-standard residue; d: D form. The star is where a group is joined. ξ: configuration not given here. ξNMePhe(4-NMe2) = CNC(Cc1ccc(N(C)C)cc1)C(=O)O; Picolinoyl(3-OH) = O=C(c1ncccc1O)*; ξPip(4-oxo) = O=C1CCNC(C(=O)O)C1; Phg = N[CH](C(=O)O)c1ccccc1; Abu = CC[CH](N)C(=O)O
Hi! Could you answer with just one of these? true (active), false (inactive)

Qu. Please let me know the test result on file for NC(=O)C1Cc2cc3c(cc21)OCO3 (stereo not given) .
Ans. false

Qu. So what was the verdict on CC1=C/C(O)CC(=O)Cc2nc(co2)C(=O)N2CCC=C2C(=O)OC(C(C)C)C(C)/C=C/C(=O)NC\C=C\1.CCC1NC(=O)C(NC(=O)c2ncccc2O)C(C)OC(=O)C(c2ccccc2)NC(=O)C2CC(=O)CCN2C(=O)C(Cc2ccc(N(C)C)cc2)N(C)C(=O)C2CCCN2C1=O (stereo not given) ({Picolinoyl(3-OH)}-T[Abu]P[ξNMePhe(4-NMe2)][ξPip(4-oxo)][Phg]; ester 1-C; configuration not given here) in this test?
Ans. false

Qu. Record request — test call for `CCOC(=O)C1=C(OS(=O)(=O)C(F)(F)F)CCCC1`
Ans. false

Qu. Answer briefly: the call reported for CC1OC(OC2C(O[C@H]3CC[C@@]4(C)C(=CC[C@H]5[C@@H]6C[C@@H]7O[C@]8(CC[C@@H](C)CO8)[C@@H](C)[C@@H]7[C@@]6(C)CC[C@@H]54)C3)OC(CO)C(OC3OC(CO)C(O)C3O)C2O)C(O)C(O)C1O (stereo not given in full) in this assay.
Ans. true

Qu. What call does the record list for `C[C@]12C=CC(=O)C=C1[C@@H](F)C[C@H]1[C@@H]3CC[C@](O)(C(=O)CO)[C@@]3(C)C[C@H](O)[C@@]12F` ?
Ans. false
